Tested on: E18 rat cortical neuron-glia co-culture
Assay: myelination (MBP fiber length per Olig2+ nucleus), % of 1 µM DAPT response (DMSO = 0) (% of DAPT); higher = more myelination, active = 50 or more
Details: 1 µM; treatment time: 8 days (DIV5-DIV13)
Quantity Name: myelination

Known myelination results, listed for orientation:
CCC1=C[C@@H]2CN(C1)Cc1c([nH]c3ccccc13)[C@@](C(=O)OC)(c1cc3c(cc1OC)N(C)[C@H]1[C@@](O)(C(=O)OC)[C@H](OC(C)=O)[C@]4(CC)C=CCN5CC[C@]31[C@@H]54)C2 : -6.45 (inactive)
CC(C)Cc1ccc(C(C)C(=O)O)cc1 (centres undefined) : -7.57 (inactive)
Cc1cccc(C)c1OCC(C)N (centres undefined) : 8.19 (inactive)
NC[C@H]1CC[C@H](C(=O)Oc2ccc(CCC(=O)O)cc2)CC1 [Cetraxate] : 4.64 (inactive)
CC(COc1ccccc1)NC(C)C(O)c1ccc(O)cc1 (centres undefined) : -4.41 (inactive)

For the compound Cn1nnc2c(C(N)=O)ncn2c1=O [Temozolomide] , report myelination.
-29.3 (inactive)

Supply recorded myelination for O=C1c2c(O)cc(O)cc2OC(c2ccc(O)c(O)c2)C1O (centres undefined) here.
-33.2 (inactive)

Return value of myelination for input "CCN(CC)CCOC(=O)C1(C2CCCCC2)CCCCC1" , no commentary.
-14.3 (inactive)

Please list myelination recorded for the compound COc1ccc(C2CNC(=O)C2)cc1OC1CCCC1 (centres undefined)
-51.4 (inactive)

----------
Tested on: E18 rat cortical neuron-glia co-culture
Experiment: myelination (MBP fiber length per Olig2+ nucleus), % of 1 µM DAPT response (DMSO = 0) (% of DAPT); higher = more myelination, active = 50 or more
Settings: 1 µM; treatment time: 8 days (DIV5-DIV13)
Measured myelination by item

Solved entries (count: 8):
C[n+]1ccccc1C=NO : -7.49 (inactive)
C[C@]12C=CC(=O)C=C1CC[C@@H]1[C@@H]2C(=O)C[C@@]2(C)[C@H]1CC[C@]2(O)C(=O)CO : -13.2 (inactive)
Oc1ccc(C2CNCCc3c2cc(O)c(O)c3Cl)cc1 (stereo unspecified) : -10.8 (inactive)
NS(=O)(=O)c1cc2c(cc1Cl)NCNS2(=O)=O [Hydrochlorothiazide] : -8.91 (inactive)
CC(=O)OCC(=O)[C@@]1(O)CC[C@H]2[C@@H]3CCC4=CC(=O)CC[C@]4(C)[C@H]3C(=O)C[C@@]21C [Cortisone acetate] : -45.2 (inactive)
Nc1ncnc2c1ncn2[C@@H]1O[C@H](CO)[C@@H](O)[C@H]1O : -4.96 (inactive)
CC(C)(C)NCC(O)c1cc(O)cc(O)c1 (stereo unspecified) : -15.9 (inactive)
C[C@H]1[C@H](OC(=O)CCC(=O)O)O[C@@H]2O[C@@]3(C)CC[C@H]4[C@H](C)CC[C@@H]1[C@@]24OO3 [Artesunate] : -34.4 (inactive)

Please supply the value of reported myelination for the item "CC(C)OC(=O)CCC/C=C\C[C@@H]1[C@@H](CC[C@@H](O)CCc2ccccc2)[C@H](O)C[C@@H]1O"
-8.13 (inactive)

Assign myelination to the following record: "CN(CCCN1c2ccccc2CCc2ccccc21)CC(=O)c1ccc(Cl)cc1"
-18.3 (inactive)

State its myelination for this molecule: CCCC(=O)Nc1ccc(OCC(O)CNC(C)C)c(C(C)=O)c1 (stereo unspecified)
-40.3 (inactive)

For the molecule COc1c(N2CCNC(C)C2)c(F)cc2c(=O)c(C(=O)O)cn(C3CC3)c12 (stereo unspecified) , report myelination.
-17 (inactive)

Specify myelination for "CCN1CCN(C(=O)N[C@@H](C(=O)N[C@@H]2C(=O)N3[C@@H]2SC(C)(C)[C@@H]3C(=O)O)c2ccccc2)C(=O)C1=O" and stop.
-13.4 (inactive)

----------
Tested on: E18 rat cortical neuron-glia co-culture
Test: fiber score / MBP score (myelination specific beyond OL differentiation) (ratio); higher = more myelination-specific MBP alignment
Details: 1 µM; treatment time: 8 days (DIV5-DIV13)
Tag: 1 (yes) if measured fiber score / MBP score is not below 0.8, 0 (no) if it is.

Solved entries (count: 6):
O=C1CC2(CCCC2)CC(=O)N1CCNCC1COc2ccccc2O1 (stereo unspecified) : 0 (no)
CSc1nc2cc(Cl)c(Oc3cccc(Cl)c3Cl)cc2[nH]1 : 0 (no)
Cc1onc(-c2c(Cl)cccc2Cl)c1C(=O)N[C@@H]1C(=O)N2[C@@H]1SC(C)(C)[C@@H]2C(=O)O : 1 (yes)
CC[N+](C)(CC)CCOC(=O)C(O)(c1ccccc1)C1CCCCC1 (stereo unspecified) : 1 (yes)
O=C(c1ccc(OCCN2CCCCC2)cc1)c1c(-c2ccc(O)cc2)sc2cc(O)ccc12 : 0 (no)
CC(CCc1ccccc1)NCC(O)c1ccc(O)c(C(N)=O)c1 (stereo unspecified) : 0 (no)

Is fiber score / MBP score for CCN(CC)C(=O)C1(c2ccccc2)CC1CN (stereo unspecified) at or above 0.8?
0 (no)

Does the compound "CCCOc1ccc(C(=O)OCCN(CC)CC)cc1N" have recorded fiber score / MBP score that is 0.8 or more?
1 (yes)

Could you verify whether the entry "CN1CCN(c2c(F)cc3c(=O)c(C(=O)O)cn4c3c2SCC4)CC1" shows fiber score / MBP score of no less than 0.8?
1 (yes)

For this compound, is measured fiber score / MBP score 0.8 or higher? "CC(C)(C)NC(=O)[C@@H]1C[C@@H]2CCCC[C@@H]2CN1C[C@@H](O)[C@H](Cc1ccccc1)NC(=O)[C@H](CC(N)=O)NC(=O)c1ccc2ccccc2n1"
1 (yes)

Tell me whether fiber score / MBP score is at least 0.8 here: "CC#C[C@]1(O)CC[C@H]2[C@@H]3CCC4=CC(=O)CCC4=C3[C@@H](c3ccc(N(C)C)cc3)C[C@@]21C"
0 (no)

Does the reported fiber score / MBP score for "Clc1ccc(CO/N=C(\Cn2ccnc2)c2ccc(Cl)cc2Cl)c(Cl)c1" fall at or above the 0.8 mark?
0 (no)

For this compound, is measured fiber score / MBP score 0.8 or higher? "CC(=O)O[C@@]12CO[C@@H]1C[C@H](O)[C@@]1(C)C(=O)[C@H](O)C3=C(C)[C@@H](OC(=O)[C@H](O)[C@@H](NC(=O)OC(C)(C)C)c4ccccc4)C[C@@](O)([C@@H](OC(=O)c4ccccc4)[C@H]21)C3(C)C"
1 (yes)

----------
Test system: E18 rat cortical neuron-glia co-culture
Assay: myelination (MBP fiber length per Olig2+ nucleus), % of 1 µM DAPT response (DMSO = 0) (% of DAPT); higher = more myelination, active = 50 or more
Settings: 1 µM; treatment time: 8 days (DIV5-DIV13)
Where a name gives a salt, the structure may show the parent alone.
Please reply with one of these outcomes: true (1) for active, false (0) for inactive

Solved cases below.
Clc1cccc(Cl)c1NC1=NCCN1 [Clonidine hydrochloride] : false (0)
Oc1c(Cl)cc(Cl)c2cccnc12 : false (0)
COc1ccccc1N1CCN(CCCNc2cc(=O)n(C)c(=O)n2C)CC1 : false (0)

What outcome does the record of this test show for "Cc1ccc(N(CC2=NCCN2)c2cccc(O)c2)cc1" ?
false (0)

Answer briefly: the call reported for Cc1ncc([N+](=O)[O-])n1CC(C)O (centres undefined) in this assay.
false (0)

What classification did "CC(=O)O[C@@]12CO[C@@H]1C[C@H](O)[C@@]1(C)C(=O)[C@H](O)C3=C(C)[C@@H](OC(=O)[C@H](O)[C@@H](NC(=O)OC(C)(C)C)c4ccccc4)C[C@@](O)([C@@H](OC(=O)c4ccccc4)[C@H]21)C3(C)C" end up with in this test?
true (1)

----------
Test system: E18 rat cortical neuron-glia co-culture
Assay: fiber score / MBP score (myelination specific beyond OL differentiation) (ratio); higher = more myelination-specific MBP alignment
Conditions: 1 µM; treatment time: 8 days (DIV5-DIV13)
Quick rule: fiber score / MBP score of at least 0.7 means yes, below that means no.

COc1cc(OC)c(C(=O)CCCN2CCCC2)c(OC)c1 [Buflomedil] : yes
Cc1ncc([N+](=O)[O-])n1CC(O)CCl (stereo not given) [Ornidazole] : no
Cc1cccc(C)c1NC(=O)C1CCCCN1C (stereo not given) [Mepivacaine] : yes

Confirm if fiber score / MBP score reported for the molecule CC(C)(O)c1ccccc1CC[C@@H](SCC1(CC(=O)O)CC1)c1cccc(/C=C/c2ccc3ccc(Cl)cc3n2)c1 [Montelukast] is 0.7 or above.
no

----------
Test system: E18 rat cortical neuron-glia co-culture
Experiment: fiber score / MBP score (myelination specific beyond OL differentiation) (ratio); higher = more myelination-specific MBP alignment
Settings: 5 µM; treatment time: 8 days (DIV5-DIV13)
The label depends only on fiber score / MBP score: TRUE if it is at least 0.9, FALSE if it is smaller.

Record excerpt, results attached:
C=C[C@H]1CN2CC[C@H]1C[C@H]2[C@H](O)c1ccnc2ccc(OC)cc12 [Quinine] : FALSE
CC(C)OC(=O)CCC/C=C\C[C@@H]1[C@@H](CC[C@@H](O)CCc2ccccc2)[C@H](O)C[C@@H]1O [Latanoprost] : FALSE
CC(C)NCC(O)COc1ccc(COCCOC(C)C)cc1 (configuration not stated) [Bisoprolol] : FALSE

Tell me whether fiber score / MBP score is at least 0.9 here: CC(Oc1c(Cl)cccc1Cl)C1=NCCN1 (configuration not stated) [lofexidine]
TRUE

Would you say CCC(=O)O[C@@H]1CC(=O)O[C@H](C)C/C=C/C=C/[C@H](O)[C@H](C)C[C@H](CC=O)[C@H](O[C@@H]2O[C@H](C)[C@@H](O[C@H]3C[C@@](C)(O)[C@@H](OC(=O)CC)[C@H](C)O3)[C@H](N(C)C)[C@H]2O)[C@H]1OC [Midecamycin] shows fiber score / MBP score at minimum 0.9?
TRUE

Evaluate CCC1=C(C)CN(C(=O)NCCc2ccc(S(=O)(=O)NC(=O)N[C@H]3CC[C@H](C)CC3)cc2)C1=O [Glimepiride] : fiber score / MBP score at minimum 0.9?
TRUE
